Here, each record is paired with measured EC50 data.
# test_target: hSTING (H232) (Homo sapiens, UniProt Q86WV6)
# Sequence (Q86WV6 whole entry): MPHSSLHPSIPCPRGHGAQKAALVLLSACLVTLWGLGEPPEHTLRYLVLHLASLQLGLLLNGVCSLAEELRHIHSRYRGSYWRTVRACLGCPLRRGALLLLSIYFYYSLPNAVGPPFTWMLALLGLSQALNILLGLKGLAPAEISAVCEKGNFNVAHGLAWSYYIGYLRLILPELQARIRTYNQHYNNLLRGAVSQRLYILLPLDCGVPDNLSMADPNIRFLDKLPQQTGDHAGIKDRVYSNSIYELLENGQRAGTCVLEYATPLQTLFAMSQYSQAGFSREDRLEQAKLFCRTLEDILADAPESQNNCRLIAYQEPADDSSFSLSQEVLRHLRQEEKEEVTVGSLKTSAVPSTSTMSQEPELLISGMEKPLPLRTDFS
# test_details: Luciferase reporter assay in HEK293T-hSTING-Luciferase cells (H232/REF polymorph)
# details: EC50 range

{"compound": "CC1(C#N)C(=O)N(Cc2c(F)cccc2Cl)c2cc(C(=O)NCc3c(F)cc(F)cc3F)ccc21 (centres unmarked) [Example 166]", "test_target": "hSTING (H232) (Homo sapiens, UniProt Q86WV6)", "measure": "EC50", "assay_result": "1000 to 10000 nM"}
{"compound": "Cc1cccc(CNC(=O)c2ccc3c(c2)N(Cc2cc(F)cc(F)c2)C(=O)C3(C)C)c1 [Example 4]", "test_target": "hSTING (H232) (Homo sapiens, UniProt Q86WV6)", "measure": "EC50", "assay_result": "1000 to 10000 nM"}
{"compound": "CC1(C)C(=O)N(Cc2cc(F)cc(F)c2)c2cc(C(=O)NCc3cc4ccccc4o3)ccc21 [Example 23]", "test_target": "hSTING (H232) (Homo sapiens, UniProt Q86WV6)", "measure": "EC50", "assay_result": "1000 to 10000 nM"}
{"compound": "CC1(C)C(=O)N(Cc2c(F)cccc2F)c2cc(C(=O)NCc3c(F)cc(F)cc3F)ccc21 [Example 109]", "test_target": "hSTING (H232) (Homo sapiens, UniProt Q86WV6)", "measure": "EC50", "assay_result": "≤ 1000 nM"}
{"compound": "CC1(C#N)C(=O)N(Cc2c(F)cccc2Cl)c2cc(C(=O)NCc3c(F)cc(F)cc3F)ccc21 (centres unmarked) [Example 164]", "test_target": "hSTING (H232) (Homo sapiens, UniProt Q86WV6)", "measure": "EC50", "assay_result": "≤ 1000 nM"}

For the compound shown here, Cc1ccc(CNC(=O)c2ccc3c(n2)N(Cc2cc(F)cc(F)c2)C(=O)C3(C)C)o1 [Example 188] , give the reported EC50. 1000 to 10000 nM

For the compound shown here, CC1(C)C(=O)N(Cc2ccccc2F)c2cc(C(=O)NCc3c(F)cc(F)cc3F)ccc21 [Example 6] , give the reported EC50. ≤ 1000 nM

For the compound shown here, CC1(C)C(=O)N(Cc2coc3ccccc23)c2cc(C(=O)NCc3c(F)cc(F)cc3F)ccc21 [Example 100] , give the reported EC50. 1000 to 10000 nM

###

# test_target: hSTING (HAQ) (Homo sapiens, UniProt Q86WV6, G230A/H232R/R293Q/R71H)
# Sequence (Q86WV6 whole entry R71H/G230A/H232R/R293Q): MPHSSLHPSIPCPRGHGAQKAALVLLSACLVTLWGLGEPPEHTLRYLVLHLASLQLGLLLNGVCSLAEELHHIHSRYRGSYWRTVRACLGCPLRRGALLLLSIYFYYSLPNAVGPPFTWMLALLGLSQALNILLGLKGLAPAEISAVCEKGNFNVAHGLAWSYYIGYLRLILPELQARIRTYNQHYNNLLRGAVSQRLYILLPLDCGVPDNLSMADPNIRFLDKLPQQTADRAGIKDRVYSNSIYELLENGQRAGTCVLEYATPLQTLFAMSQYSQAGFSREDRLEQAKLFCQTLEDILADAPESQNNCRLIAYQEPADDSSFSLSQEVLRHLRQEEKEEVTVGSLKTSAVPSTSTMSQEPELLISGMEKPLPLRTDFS
# test_details: Luciferase reporter assay in HEK293T-hSTING-Luciferase cells (HAQ polymorph)
# details: EC50 range
# From the text: • a) Stable STING expressing cells—Stable HEK293T STING-expressing cell lines were generated using plasmids purchased from Invivogen, CA, USA, that contain STING cDNA cloned into the pUNO-1 vector under hEF1-HTLV promoter and containing the Blasticidin selection cassette. […]
Here, each record is paired with measured EC50 data.

Guide cases for EC50, answers given:
{"molecule": "CC1(C)C(=O)N(Cc2coc3ccccc23)c2cc(C(=O)NCc3c(F)cc(F)cc3F)ccc21", "EC50": "1 to 10 µM"}
{"molecule": "CC1(C)C(=O)N(Cc2ccccc2C#N)c2cc(C(=O)NCc3c(F)cc(F)cc3F)ccc21", "EC50": "1 to 10 µM"}
{"molecule": "CCn1nc(C)cc1CN1C(=O)C(C)(C)c2ccc(C(=O)NCc3c(F)cc(F)cc3F)cc21", "EC50": "1 to 10 µM"}
{"molecule": "CC1(C#N)C(=O)N(Cc2c(F)cccc2Cl)c2cc(C(=O)NCc3c(F)cc(F)cc3F)ccc21 (stereo not shown) [Example 166]", "EC50": "1 to 10 µM"}
{"molecule": "CC1(C)C(=O)N(Cc2c(F)cccc2C#N)c2cc(C(=O)NCc3c(F)cc(F)cc3F)ccc21", "EC50": "1 to 10 µM"}
{"molecule": "Cc1cccc(CN2C(=O)C(C)(C)c3ccc(C(=O)NCc4c(F)cc(F)cc4F)cc32)c1F", "EC50": "≤ 1 µM"}

Next up:
For the molecule shown here, Cc1nn(CCO)c(CN2C(=O)C(C)(C)c3ccc(C(=O)NCc4cc5cc(F)ccc5o4)cc32)c1F , give the reported EC50. 1 to 10 µM

###

Here, each record is paired with measured pEC50 data.
# test_target: WT/R232 STING protein (Homo sapiens, UniProt Q86WV6, H232R)
# Sequence (Q86WV6 whole entry H232R): as the sequence (Q86WV6 whole entry R71H/G230A/H232R/R293Q) above, with H71R, A230G, Q293R counted along it
# test_details: Luciferase reporter assay in HEK293T-hSTING-Luciferase cells (R232)
# details: 20 hr stimulation, EC50 range
pEC50: −log10 of the molar value.

Guide cases for pEC50, answers given:
{"molecule": "Cc1cccc(CNC(=O)c2ccc3c(c2)N(Cc2cc(F)cc(F)c2)C(=O)C3(C)C)c1", "pEC50": "5.00 to 6.00"}
{"molecule": "CC1(CCN)C(=O)N(Cc2cc(F)cc(F)c2)c2cc(C(=O)NCc3c(F)cc(F)cc3F)ccc21 (stereo not drawn)", "pEC50": "< 5.00"}
{"molecule": "CC1(C)C(=O)N(Cc2ccc(F)cc2)c2nc(C(=O)NCc3c(F)cc(F)cc3F)ccc21", "pEC50": "< 5.00"}
{"molecule": "Cc1nn(CCO)c(CN2C(=O)C(C)(C)c3ccc(C(=O)NCc4cc5cc(F)ccc5o4)cc32)c1F", "pEC50": "≥ 6.00"}
{"molecule": "Cc1cccc(F)c1CN1C(=O)C(C)(C)c2ccc(C(=O)NCc3ccc(F)cc3)nc21", "pEC50": "5.00 to 6.00"}

For the molecule shown here, O=C(NCc1c(F)cc(F)cc1F)c1ccc2c(c1)N(Cc1c(F)cccc1Cl)C(=O)C2(Cl)c1ccccc1 (stereo not drawn) , give the reported pEC50. < 5.00

For the molecule shown here, CC1(C)C(=O)N(Cc2ccccn2)c2cc(C(=O)NCc3c(F)cc(F)cc3F)ccc21 , give the reported pEC50. 5.00 to 6.00

For the molecule shown here, CC1(C)C(=O)N(Cc2ccccc2)c2cc(C(=O)NCc3c(F)cc(F)cc3F)ccc21 , give the reported pEC50. ≥ 6.00

For the molecule shown here, CC1(C)c2ccc(C(=O)NCc3c(F)cc(F)cc3F)cc2N(Cc2c(F)cccc2Cl)S1(=O)=O , give the reported pEC50. < 5.00

For the molecule shown here, CC1(C(N)=O)C(=O)N(Cc2cc(F)cc(F)c2)c2cc(C(=O)NCc3c(F)cc(F)cc3F)ccc21 (stereo not drawn) , give the reported pEC50. < 5.00

For the molecule shown here, CC1(N=[N+]=[N-])C(=O)N(Cc2c(F)cccc2Cl)c2cc(C(=O)NCc3c(F)cc(F)cc3F)ccc21 (stereo not drawn) , give the reported pEC50. ≥ 6.00

For the molecule shown here, CC1(C)C(=O)N(Cc2noc3ncccc23)c2cc(C(=O)NCc3c(F)cc(F)cc3F)ccc21 , give the reported pEC50. ≥ 6.00

For the molecule shown here, CC1(C)C(=O)N(Cc2cc(F)cc(F)c2)c2nc(C(=O)NCc3c(F)cc(F)cc3F)ccc21 , give the reported pEC50. 5.00 to 6.00

For the molecule shown here, CC1(C)C(=O)N(Cc2cccc(N=[N+]=[N-])c2)c2cc(C(=O)NCc3c(F)cc(F)cc3F)ccc21 , give the reported pEC50. 5.00 to 6.00

For the molecule shown here, O=C(NCc1ccco1)c1ccc2c(c1)N(C(=O)c1c(F)cccc1Cl)CC2 , give the reported pEC50. < 5.00

###

# test_target: WT/R232 STING protein (Homo sapiens, UniProt Q86WV6, H232R)
# test_details: Luciferase reporter assay in HEK293T-hSTING-Luciferase cells (R232)
# details: 20 hr stimulation, EC50 range
Here, each record is paired with measured EC50 data.

Guide cases for EC50, answers given:
{"molecule": "CC1(C)C(=O)N(Cc2cc(F)cc(F)c2)c2cc(C(=O)NCc3cc4ccccc4o3)cnc21 [Example 193]", "EC50": "> 10000 nM"}
{"molecule": "CC1(Cl)C(=O)N(Cc2cc(F)cc(F)c2)c2cc(C(=O)NCc3c(F)cc(F)cc3F)ccc21 (centres unmarked) [Example 144]", "EC50": "≤ 1000 nM"}

For the molecule shown here, CC1(C)C(=O)N(Cc2c(F)cc(O)cc2F)c2cc(C(=O)NCc3c(F)cc(F)cc3F)ccc21 [Example 65] , give the reported EC50. ≤ 1000 nM

For the molecule shown here, CNC1(C)C(=O)N(Cc2cc(F)cc(F)c2)c2cc(C(=O)NCc3c(F)cc(F)cc3F)ccc21 (centres unmarked) [Example 145] , give the reported EC50. 1000 to 10000 nM

For the molecule shown here, CC1(C)C(=O)N(Cc2cc(F)cc(F)c2)c2cc(C(=O)NCc3cccc(N=[N+]=[N-])c3)ccc21 [Example 47] , give the reported EC50. 1000 to 10000 nM

For the molecule shown here, CC1(C)C(=O)N(Cc2c(F)cccc2F)c2cc(C(=O)NCc3c(F)cc(F)cc3F)ccc21 [Example 109] , give the reported EC50. ≤ 1000 nM

For the molecule shown here, Cc1ncc(CN2C(=O)C(C)(C)c3ccc(C(=O)NCc4c(F)cc(F)cc4F)cc32)s1 [Example 58] , give the reported EC50. 1000 to 10000 nM

For the molecule shown here, CC1(C)C(=O)N(Cc2c(F)cccc2Cl)c2cc(C(=O)NCc3cccs3)ccc21 [Example 7] , give the reported EC50. 1000 to 10000 nM

FYI, the data here is from patent US20200172483A1.
